- TEST NAME: qHTS of pediatric cancer cell lines to identify multiple opportunities for drug repurposing: Primary screen for OHS-50 cells (AID 1347103); note: nearly all actives have a fitted effect of over 40% in size
- ASSAY SETUP: OHS-50 osteosarcoma viability, CellTiter-Glo luminescence, 48 h; series mostly up to 57.3 µM
- Description: Drug repurposing or repositioning has been offered as a strategy for drug development in oncology programs. […] [1] Shen, M et al. Quantitative high-throughput phenotypic screening of pediatric cancer cell lines identifies multiple opportunities for drug repurposing. […] Cells were assayed in growth media at a density of 500-1,000 cells/well. […] After a 15 min incubation at room temperature, samples were analyzed for luminescence intensity using a ViewLux High-throughput CCD imager equipped with clear filters.
Inconclusive results are not listed. The source made the active and inactive calls. Calls come from the whole dose curve; as a rule, active = well fitted cell-killing curve with a large enough effect; inconclusive = small, poorly fitted or top-dose-only effect; inactive = no such curve, though single readings can be large or run the other way.
Response enum: 1 for active, -1 for inactive

Hi, do you know how `CN1C(=O)C[C@H](C(=O)N[C@@H](Cc2cnc[nH]2)C(=O)N2CCC[C@@H]2C(N)=O)NC1=O` came out in this test?
-1

Now try `CCCCCCCCCCCCCC(=O)N[C@H](CO)[C@H](O)c1ccc([N+](=O)[O-])cc1` .
-1

Now try `CC(C)c1onc(-c2c(Cl)cccc2Cl)c1COc1ccc(C=Cc2cccc(C(=O)O)c2)c(Cl)c1` .
1

Now try `CN(C)c1ccccc1CN1CCCN(Cc2ccccc2N(C)C)C1c1ccncc1` .
1

Now try `CC1(COc2ccc3c(c2)ncn3-c2ccc3cccc(N4CCC(N)CC4)c3n2)COC1` .
1

Now try COC1CCC(C(=O)c2ccc3nc4c(cc3c2)CCCO4)CC1 (stereo not given) .
1

Now try `COc1cc2nccc(Oc3ccc(NC(=O)Nc4ccc(F)cc4F)c(F)c3)c2cc1OC` .
1

###

- TEST NAME: Quantitative High-Throughput drug screen in 47 multiple myeloma cell lines against the NCATS MIPE library collection: H1112_PLB cell viability assay (AID 1918967; note: nearly all actives have a fitted effect of over 30% in size; note: potency is the fitted concentration of half-maximal effect)
- ASSAY SETUP: H1112 myeloma cells viability, ATP luminescence, 48 h; series mostly up to 45.8 µM
Inconclusive results are not listed. Active and inactive are the calls of the source. The call rests on the fitted dose curve; in most records, active means well fitted cell-killing curve with a large enough effect; inconclusive means small, poorly fitted or top-dose-only effect, or effect the other way; inactive means no such curve, though single readings can be large or run the other way.
MEASURED ENDPOINT: Potency

// solved cases for Potency follow
CN[C@@H]1CN(c2ccc3c(=O)c(C(=O)O)cn(-c4nccs4)c3n2)C[C@@H]1OC : 12.9 µM (active)
CCCCC(C=O)NC(=O)C(CC(C)C)NC(=O)OCc1ccccc1 (stereo not given) : inactive
OC(c1cc(C(F)(F)F)nc2c(C(F)(F)F)cccc12)C1CCCCN1 (stereo not given) : 20.9 µM (active)
O=C1NC(=O)C(=Cc2ccc(-c3ccc(F)cc3O)o2)S1 : 20.9 µM (active)

Let us move to another entry and its Potency.
Which Potency is listed for `CCOC(=O)[C@H]1O[C@H]1C(=O)N[C@@H](CC(C)C)C(=O)NCCC(C)C` ?
inactive

###

- TEST NAME: Quantitative High-Throughput drug screen in 47 multiple myeloma cell lines against the NCATS MIPE library collection: OCIMY5_PLB cell viability assay (AID 1918988); note: nearly all actives have a fitted effect of over 65% in size
- ASSAY SETUP: OCI-MY5 myeloma viability, ATP luminescence, 48 h; series mostly up to 45.8 µM
Inconclusive results are not listed. Active and inactive are the calls of the source. Calls come from the whole dose curve; as a rule, active = well fitted cell-killing curve with a large enough effect; inconclusive = small, poorly fitted or top-dose-only effect, or effect the other way; inactive = no such curve, though single readings can be large or run the other way.
Response enum: active, inactive

Example entries begin here.
C=C1c2cccc(O)c2C(O)=C2C(=O)[C@@]3(O)C(O)=C(C(N)=O)C(=O)[C@@H](N(C)C)[C@@H]3[C@@H](O)[C@H]12 : active
CC(C)(O)CC(=O)NCCn1ccc2ncnc(Nc3ccc(Oc4cccc(C(F)(F)F)c4)c(Cl)c3)c21 : active
CC1=C(C(=O)Nc2cc3cn[nH]c3cc2F)C(c2ccc(C(F)(F)F)cc2)CC(=O)N1 (centres undefined) : inactive
CCCCCCOC(=O)N=C(N)c1ccc(NCc2nc3cc(C(=O)N(CCC(=O)OCC)c4ccccn4)ccc3n2C)cc1 : active
O=S(=O)(NCCNCC=Cc1ccc(Br)cc1)c1cccc2cnccc12 : active
CC(C)CN(C[C@@H](O)[C@H](Cc1ccccc1)NC(=O)O[C@H]1CO[C@H]2OCC[C@H]21)S(=O)(=O)c1ccc(N)cc1 : active

Hi, do you know how `NS(=O)(=O)c1ccc(Nc2nc(OCC3CCCCC3)c3[nH]cnc3n2)cc1` came out in this test?
active

Now try `O=C(O)c1ccc(O)c2ncc(N3CCOCC3)cc12` .
active

Now try `CC(C)CNc1ccnc(NCc2csc(-c3ccccc3)n2)n1` .
active

Now try `Cc1cccc2c1CC[C@H](CN1CCC(c3c(Cl)cccc3Cl)CC1)C[C@@H]2O` .
active
